Entries annotated with measured 20 nM hKLB-HA-6His Bind (RU)
measured on: T1, extracellular domain of human KLB expressed with C-terminal HA and hexahistidine tags (human, UniProt Q86Z14 1-996)
T1 construct: also called hKLB-HA-6His; hKLB-HA-6his
T1 sequence: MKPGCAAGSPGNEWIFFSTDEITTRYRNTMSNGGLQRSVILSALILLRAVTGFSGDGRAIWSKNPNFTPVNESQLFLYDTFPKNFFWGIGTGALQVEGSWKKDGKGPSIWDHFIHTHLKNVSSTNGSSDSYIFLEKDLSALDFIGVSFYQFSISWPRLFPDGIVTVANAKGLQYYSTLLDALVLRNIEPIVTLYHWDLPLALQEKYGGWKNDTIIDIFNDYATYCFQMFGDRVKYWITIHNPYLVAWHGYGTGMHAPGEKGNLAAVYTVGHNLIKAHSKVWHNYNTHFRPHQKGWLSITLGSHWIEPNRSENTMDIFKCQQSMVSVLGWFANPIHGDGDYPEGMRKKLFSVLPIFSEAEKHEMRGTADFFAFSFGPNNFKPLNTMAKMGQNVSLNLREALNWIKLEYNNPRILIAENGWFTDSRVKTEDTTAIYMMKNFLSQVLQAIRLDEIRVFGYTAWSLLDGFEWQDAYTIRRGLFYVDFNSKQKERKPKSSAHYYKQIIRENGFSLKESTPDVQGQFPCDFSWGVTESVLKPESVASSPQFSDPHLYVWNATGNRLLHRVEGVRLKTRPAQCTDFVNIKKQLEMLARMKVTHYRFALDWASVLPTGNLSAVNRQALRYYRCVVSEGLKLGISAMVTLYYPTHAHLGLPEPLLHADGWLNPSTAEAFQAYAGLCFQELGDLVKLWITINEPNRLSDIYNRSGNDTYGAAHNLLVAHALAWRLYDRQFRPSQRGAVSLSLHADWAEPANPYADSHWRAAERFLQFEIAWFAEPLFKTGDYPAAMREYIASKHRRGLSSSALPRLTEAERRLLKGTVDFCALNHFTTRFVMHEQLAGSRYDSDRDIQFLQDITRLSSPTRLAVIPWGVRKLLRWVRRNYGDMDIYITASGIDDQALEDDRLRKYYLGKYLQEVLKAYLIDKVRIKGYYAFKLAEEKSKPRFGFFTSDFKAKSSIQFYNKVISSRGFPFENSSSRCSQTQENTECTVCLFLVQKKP
measurement description: SPR, mAb captured, 37 C
The reply should be a number in RU, with the unit left off.

Please review the entries below; each comes with its answer.
H4H8859P (antibody, V domains shown, human IgG4 Fc (H4H prefix)) VH: EVQLVESGGSVVRPGGSLRLSCAASGFTFDVYGMSWVRQAPGKGLEWVSGINWIGGSTGYADSVKGRFTISRDNAKNSLYLQMNSLRAEDTALYYCTREEDYWGQGTLVTVSS VL: DVVMTQSPLSLAVTLGQPASISCRSSQSLVYSDGNTYLNWFQQRPGQSPRRLFYKVSNRDSGVPDRFSGSGSGTDFTLKISRVEAEDVGIYYCMQGIKWPLTFGGGTKVEIK : 0.8
H4H8852P (antibody, V domains shown, human IgG4 Fc (H4H prefix)) VH: QVQLQESGPGLVKPSETLSLTCTVSGGSISSYYWSWIRQPPGKGLEWIGYIYSSGIIKYNPSLKSRVTISADTSKNQFSLKLSSVTAADTAVYYCARHGIFGVMEYFQRWGQGTLVTVSS VL: DIQMTQSPSSLSASIGDRVTITCQASQDIGNFLNWYQQKPGKAPTLLIYDASNMETGVPSRFSGSGSGTYFTFTISSLQPEDVATYYCQQYDNLPLTFGGGTKVEIK : 5.1

Query :: Input H2aM8098N (antibody, V domains shown, mouse IgG2 Fc (H2aM prefix)) VH: QLQLQESGPGLVKPSETLSLTCTVSGGSISSSNYYWDWIRQTPEKGLEWIGSIHYSGTSYYNPSLKSRVTISVDTSKNQFSLKLRSVTAADAAVYYCARQTSVYWYFDIWGHGTLVTVST VL: EIVLTQSPGTLSLSPGEGATLSCRASQSVRNNYLAWYQQKPGQAPRLLIYGASSRAIGIPDRFSGSGSGTDFTLTISRLEPKDFVVYYCQQYGGSLFTFGPGTKVDIK , output reported 20 nM hKLB-HA-6His Bind (RU).
Result :: 3.9
